Assay: in vivo
Conditions: both, SD, rat, po, 15 mg/kg, AUC0-last
ENDPOINT NAME: AUC(0-t)

compound="O=C(O)[C@H]1C2CCC(CC2)[C@@H]1Nc1nc(-c2n[nH]c3ncc(F)cc23)nc(C2CC2)c1F [ZSP1273]" endpoint_name=AUC(0-t) test_value="12100 ng·h/mL"

====

Molecular target: Eta (Homo sapiens, UniProt P25101)
Sequence (P25101 21-427): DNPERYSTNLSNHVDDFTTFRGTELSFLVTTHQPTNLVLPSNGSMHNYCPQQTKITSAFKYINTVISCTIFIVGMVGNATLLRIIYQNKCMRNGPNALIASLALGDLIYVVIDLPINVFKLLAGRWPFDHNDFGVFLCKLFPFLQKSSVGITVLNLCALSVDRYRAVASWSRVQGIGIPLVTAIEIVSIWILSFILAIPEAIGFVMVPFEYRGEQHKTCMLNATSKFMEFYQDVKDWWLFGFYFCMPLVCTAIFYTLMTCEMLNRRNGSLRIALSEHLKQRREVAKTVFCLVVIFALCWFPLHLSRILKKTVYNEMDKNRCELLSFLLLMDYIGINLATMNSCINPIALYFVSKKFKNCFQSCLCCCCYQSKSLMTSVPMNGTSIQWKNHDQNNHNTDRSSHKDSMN
ENDPOINT NAME: IC50

smiles_data=O=C(O)[C@H]1C2CCC(CC2)[C@@H]1Nc1nc(-c2n[nH]c3ncc(F)cc23)nc(C2CC2)c1F tested_on="Eta (Homo sapiens, UniProt P25101)" test_value="> 10 µM"

Values compiled from paper PMC10056986.
